Exercise: state measured EC50 (nM), uncrosslinked, HEK293-hCD40-NFkB reporter for each of the binders provided.
# Tgt: human CD40 on cells (human, UniProt P25942 21-277)
# Sequence (P25942 21-277): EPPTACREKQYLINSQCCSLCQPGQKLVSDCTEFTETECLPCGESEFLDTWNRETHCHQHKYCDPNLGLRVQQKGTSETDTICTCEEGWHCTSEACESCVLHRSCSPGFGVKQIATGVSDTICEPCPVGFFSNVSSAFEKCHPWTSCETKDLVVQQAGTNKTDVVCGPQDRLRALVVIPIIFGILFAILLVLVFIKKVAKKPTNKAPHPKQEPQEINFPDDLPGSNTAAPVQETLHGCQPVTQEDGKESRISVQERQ
# Protocol text: cell-based or functional assay
Dear colleague, please return just the value in nM, with no unit written.

Noted for PR006515 (antibody, human IgG1, kappa, V domains shown, PR003379 variant L:S93M; human IgG1 L234A, L235A, G237A) VH: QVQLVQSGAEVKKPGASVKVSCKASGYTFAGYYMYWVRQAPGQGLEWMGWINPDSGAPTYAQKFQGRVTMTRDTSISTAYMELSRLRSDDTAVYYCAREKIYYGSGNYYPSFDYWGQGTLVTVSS VL: DIQLTQSPSFLSASVGDRVTITCRASQGISSYLAWYQQKPGKAPKLLIYAASTLQSGVPSRFSGSGSGTEFTLTISSLQPEDFATYYCQQLNMYPWTFGQGTKVEIKR : its EC50 (nM), uncrosslinked, HEK293-hCD40-NFkB reporter reads 0.268

get_value(item= PR006498 (antibody, human IgG1, kappa, V domains shown, PR003379 variant L:N92I; human IgG1 L234A, L235A, G237A) VH: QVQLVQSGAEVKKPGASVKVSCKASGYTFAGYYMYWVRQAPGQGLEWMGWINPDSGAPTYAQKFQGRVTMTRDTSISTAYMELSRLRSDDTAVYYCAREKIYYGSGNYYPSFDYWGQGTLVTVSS VL: DIQLTQSPSFLSASVGDRVTITCRASQGISSYLAWYQQKPGKAPKLLIYAASTLQSGVPSRFSGSGSGTEFTLTISSLQPEDFATYYCQQLISYPWTFGQGTKVEIKR , readout=EC50 (nM), uncrosslinked, HEK293-hCD40-NFkB reporter) returns 0.462

For record PR006499 (antibody, human IgG1, kappa, V domains shown, PR003379 variant L:N92W; human IgG1 L234A, L235A, G237A) VH: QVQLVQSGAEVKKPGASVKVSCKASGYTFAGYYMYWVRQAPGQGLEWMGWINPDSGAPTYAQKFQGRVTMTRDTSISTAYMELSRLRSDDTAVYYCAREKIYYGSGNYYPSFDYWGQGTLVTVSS VL: DIQLTQSPSFLSASVGDRVTITCRASQGISSYLAWYQQKPGKAPKLLIYAASTLQSGVPSRFSGSGSGTEFTLTISSLQPEDFATYYCQQLWSYPWTFGQGTKVEIKR the listed EC50 (nM), uncrosslinked, HEK293-hCD40-NFkB reporter is 1.04

Item: PR006510 (antibody, human IgG1, kappa, V domains shown, PR003379 variant L:S93R; human IgG1 L234A, L235A, G237A) VH: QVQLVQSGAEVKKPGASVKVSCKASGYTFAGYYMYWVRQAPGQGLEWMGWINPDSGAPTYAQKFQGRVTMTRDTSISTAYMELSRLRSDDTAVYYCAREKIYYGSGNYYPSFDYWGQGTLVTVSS VL: DIQLTQSPSFLSASVGDRVTITCRASQGISSYLAWYQQKPGKAPKLLIYAASTLQSGVPSRFSGSGSGTEFTLTISSLQPEDFATYYCQQLNRYPWTFGQGTKVEIKR | EC50 (nM), uncrosslinked, HEK293-hCD40-NFkB reporter: 0.125
